- tgt: UniProt:P18031
- protocolNotes: Non-competitive reversible inhibition of human PTP1B
- conditionSummary: read-out: IC50
pIC50: −log10 of the molar value.
valueKind: pIC50

# chemicalSmiles, valueKind, quantitativeReadout
data = [
    ("CC1(C)C=C2C(=NN(c3cccc(C(F)(F)F)c3)C(N)=C2C#N)CO1", "pIC50", 5.55),
    ("CCc1ccc(N2N=C3COC(C)(C)C=C3C(C#N)=C2N)cc1", "pIC50", 5.55),
    ("CCCCc1ccccc1N1N=C2COC(C)(C)C=C2C(C#N)=C1N", "pIC50", 5.82),
    ("CC1(C)C=C2C(=NN(c3ccc(Oc4ccccc4)cc3)C(N)=C2C#N)CO1", "pIC50", 4.64),
    ("N#CC1=C(N)N(c2ccccc2F)N=C2CSCC=C21", "pIC50", 5.36),
]

I: COc1ccc(N2N=C3CSCC=C3C(C#N)=C2N)cc1
II: CC(=O)Nc1cccc(N2N=C3COC(C)(C)C=C3C(C#N)=C2N)c1
III: CCc1cccc(N2N=C3COC(C)(C)C=C3C(C#N)=C2N)c1
Q: Sort by pIC50, descending. Put the labels in the order asked and list them.
A: I, II, III

---

- tgt: UniProtKB P18031
- Sequence (P18031 whole entry): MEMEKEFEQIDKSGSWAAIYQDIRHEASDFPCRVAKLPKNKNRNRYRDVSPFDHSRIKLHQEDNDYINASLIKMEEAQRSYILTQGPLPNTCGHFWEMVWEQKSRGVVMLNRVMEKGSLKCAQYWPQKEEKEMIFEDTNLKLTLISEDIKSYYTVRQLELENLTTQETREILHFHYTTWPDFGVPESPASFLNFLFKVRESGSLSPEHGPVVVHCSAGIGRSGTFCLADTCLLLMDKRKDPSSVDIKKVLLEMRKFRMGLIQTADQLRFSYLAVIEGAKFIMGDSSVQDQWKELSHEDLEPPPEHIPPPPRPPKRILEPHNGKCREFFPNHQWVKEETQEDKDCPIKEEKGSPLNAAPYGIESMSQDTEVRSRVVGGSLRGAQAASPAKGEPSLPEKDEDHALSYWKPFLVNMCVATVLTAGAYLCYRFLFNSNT
- protocolNotes: Non-competitive reversible inhibition of human PTP1B
- conditionSummary: read-out: pIC50 (converted)
valueKind: IC50 (µM)

I: CC1(C)C=C2C(=NN(c3ccc(CO)cc3)C(N)=C2C#N)CO1
II: CC1(C)C=C2C(=NN(c3ccc(CCO)cc3)C(N)=C2C#N)CO1
III: CC1(C)C=C2C(=NN(c3ccccc3[N+](=O)[O-])C(N)=C2C#N)CO1
Q: In a descending ranking, list each entry from above by its IC50, from the largest value down to the smallest. Form field (ranking): labels in requested order.
A: III, II, I
(III: 17.5 µM, II: 2.9 µM, I: 1.7 µM)

---

- tgt: Tyrosine-protein phosphatase non-receptor type 1 (Homo sapiens)
- protocolNotes: Non-competitive reversible inhibition of human PTP1B
- conditionSummary: read-out: pIC50 (converted)
valueKind: IC50 (µM)

1: N#CC1=C(N)N(c2ccccc2)N=C2COCC=C21
2: CC(C)c1ccccc1N1N=C2CSCC=C2C(C#N)=C1N
3: CC1(C)C=C2C(=NN(c3ccc(F)cc3)C(N)=C2C#N)CO1
4: COc1ccc(N2N=C3CSCC=C3C(C#N)=C2N)cc1
5: CCOc1ccccc1N1N=C2COC(C)(C)C=C2C(C#N)=C1N
Q: # rank by IC50, ascending (min first) Please write the labels in the order that was asked for.
A: 1, 4, 2, 5, 3

---

- tgt: UniProt:P18031
- protocolNotes: Non-competitive reversible inhibition of human PTP1B
- conditionSummary: read-out: IC50
pIC50: −log10 of the molar value.
valueKind: pIC50

# chemicalSmiles, valueKind, quantitativeReadout
data = [
    ("N#CC1=C(N)N(c2ccccc2)N=C2CCCC=C21", "pIC50", 4.98),
    ("N#CC1=C(N)N(c2ccccc2)N=C2COCC=C21", "pIC50", 6.46),
    ("CC(C)c1ccc(N2N=C3CSCC=C3C(C#N)=C2N)cc1", "pIC50", 5.25),
    ("CC(C)c1cccc(N2N=C3COC(C)(C)C=C3C(C#N)=C2N)c1", "pIC50", 5.09),
]

P: CC1(C)C=C2C(=NN(c3ccccc3[N+](=O)[O-])C(N)=C2C#N)CO1
Q: CC1(C)C=C2C(=NN(c3cccc(Oc4ccccc4)c3)C(N)=C2C#N)CO1
R: CC(=O)Nc1ccc(N2N=C3COC(C)(C)C=C3C(C#N)=C2N)cc1
S: COc1ccc(N2N=C3COC(C)(C)C=C3C(C#N)=C2N)cc1
Q: Reorder: pIC50, max to min. Output the labels ranked as instructed.
A: S, Q, R, P
(S: 5.66, Q: 5.41, R: 5.21, P: 4.76)

---

- tgt: Tyrosine-protein phosphatase non-receptor type 1 (Homo sapiens, UniProt P18031)
- protocolNotes: Non-competitive reversible inhibition of human PTP1B
- conditionSummary: read-out: pIC50 (converted)
valueKind: IC50 (µM)

# chemicalSmiles, quantitativeReadout
measured = [
    ("COC(=O)c1cccc(N2N=C3COC(C)(C)C=C3C(C#N)=C2N)c1", 2.1),
    ("CC(C)c1ccc(N2N=C3CSCC=C3C(C#N)=C2N)cc1", 5.6),
    ("CC1(C)C=C2C(=NN(c3ccccc3N3CCOCC3)C(N)=C2C#N)CO1", 2.9),
    ("CCCCc1ccc(N2N=C3COC(C)(C)C=C3C(C#N)=C2N)cc1", 7),
    ("CC(=O)Nc1cccc(N2N=C3COC(C)(C)C=C3C(C#N)=C2N)c1", 2.3),
    ("CC1(C)C=C2C(=NN(c3cccc(F)c3)C(N)=C2C#N)CO1", 4.5),
]

1: CC1(C)C=C2C(=NN(c3cccc(CO)c3)C(N)=C2C#N)CO1
2: CC(=O)Nc1ccc(N2N=C3COC(C)(C)C=C3C(C#N)=C2N)cc1
3: CC1(C)C=C2C(=NN(c3ccccc3Oc3ccccc3)C(N)=C2C#N)CO1
4: CCCCc1ccccc1N1N=C2COC(C)(C)C=C2C(C#N)=C1N
5: CC1(C)C=C2C(=NN(c3ccccc3C(F)(F)F)C(N)=C2C#N)CO1
Q: # rank by IC50, ascending (min first) In plain terms: list the labels in the order you were asked to.
A: 4, 1, 5, 2, 3
(4: 1.5 µM, 1: 2.4 µM, 5: 3.9 µM, 2: 6.1 µM, 3: 15.8 µM)

---

- tgt: Tyrosine-protein phosphatase non-receptor type 1 (Homo sapiens)
- Sequence (P18031 whole entry): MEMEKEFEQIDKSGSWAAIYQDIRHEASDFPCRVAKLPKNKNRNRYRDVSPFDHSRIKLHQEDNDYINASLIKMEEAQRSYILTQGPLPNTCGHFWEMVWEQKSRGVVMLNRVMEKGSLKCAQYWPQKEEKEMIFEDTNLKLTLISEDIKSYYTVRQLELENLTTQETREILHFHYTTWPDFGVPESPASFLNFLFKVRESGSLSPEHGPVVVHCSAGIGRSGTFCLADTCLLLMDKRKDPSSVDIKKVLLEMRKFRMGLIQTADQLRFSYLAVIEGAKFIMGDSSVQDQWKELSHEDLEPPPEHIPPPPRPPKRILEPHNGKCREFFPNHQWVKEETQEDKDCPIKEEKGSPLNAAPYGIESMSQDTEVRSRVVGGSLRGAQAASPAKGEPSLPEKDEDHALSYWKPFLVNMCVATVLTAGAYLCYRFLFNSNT
- protocolNotes: Non-competitive reversible inhibition of human PTP1B
- conditionSummary: read-out: IC50
valueKind: IC50 (µM)

# chemicalSmiles, tgt, quantitativeReadout
rows = [
    ("COC(=O)c1cccc(N2N=C3COC(C)(C)C=C3C(C#N)=C2N)c1", "Tyrosine-protein phosphatase non-receptor type 1 (Homo sapiens)", 2.1),
    ("CC1(C)C=C2C(=NN(c3ccccc3CO)C(N)=C2C#N)CO1", "Tyrosine-protein phosphatase non-receptor type 1 (Homo sapiens)", 11.1),
    ("CC1(C)C=C2C(=NN(c3ccccc3C(F)(F)F)C(N)=C2C#N)CO1", "Tyrosine-protein phosphatase non-receptor type 1 (Homo sapiens)", 3.9),
    ("CC1(C)C=C2C(=NN(c3ccc(CCO)cc3)C(N)=C2C#N)CO1", "Tyrosine-protein phosphatase non-receptor type 1 (Homo sapiens)", 2.9),
]

I: CCCCc1ccc(N2N=C3COC(C)(C)C=C3C(C#N)=C2N)cc1
II: CC1(C)C=C2C(=NN(c3ccccc3N3CCOCC3)C(N)=C2C#N)CO1
Q: Of I and II , whose reported IC50 is numerically smaller? Select an item and report its label.
A: II
(II: 2.9 µM, I: 7 µM)
